system name: hH3R (human histamine H3 receptor) (Homo sapiens)
Construct: gene HRH3; transiently transfected cDNA, HEK293T cell homogenates
assay explanation: [3H]NAMH displacement, cell homogenates
Type: biochemical
stated conditions: read-out: pKi (converted)
experimental readout: Ki (nM)

Example entries and their recorded answers appear below.
- smiles structure: "C=Cc1nc(C)cc(N2CCN(C3CCC3)CC2)n1"
  measurement: 3980
- smiles structure: "O=C(CCl)Nc1cccc(N2CCN(C3CCC3)CC2)c1"
  measurement: 631

1. C=Cc1nc(C(C)C)cc(N2CCN(C3CCC3)CC2)n1
2. Nc1cccc(N2CCN(C3CCC3)CC2)c1
Lab note: record which item had the higher Ki, 1 or 2 . To answer, give the label that identifies your chosen option.
1
(1: 3160 nM, 2: 1260 nM)

---

system name: hH3R (human histamine H3 receptor) (Homo sapiens)
Construct: gene HRH3; transiently transfected cDNA, HEK293T cell homogenates
assay explanation: [3H]NAMH displacement, cell homogenates
Type: biochemical
stated conditions: read-out: pKi (converted)
experimental readout: Ki (µM)

A. CCc1nc(C(C)C)cc(N2CCN(C3CCC3)CC2)n1
B. CC(C)c1cc(N2CC(N(C)C)C2)nc(N)n1
Identify the item whose Ki is the smaller number: A or B // return label of chosen record
B
(B: 0.0501 µM, A: 3.16 µM)

---

system name: hH3R (human histamine H3 receptor) (Homo sapiens, UniProt Q9Y5N1)
Construct: gene HRH3; transiently transfected cDNA, HEK293T cell homogenates
Sequence (Q9Y5N1 whole entry): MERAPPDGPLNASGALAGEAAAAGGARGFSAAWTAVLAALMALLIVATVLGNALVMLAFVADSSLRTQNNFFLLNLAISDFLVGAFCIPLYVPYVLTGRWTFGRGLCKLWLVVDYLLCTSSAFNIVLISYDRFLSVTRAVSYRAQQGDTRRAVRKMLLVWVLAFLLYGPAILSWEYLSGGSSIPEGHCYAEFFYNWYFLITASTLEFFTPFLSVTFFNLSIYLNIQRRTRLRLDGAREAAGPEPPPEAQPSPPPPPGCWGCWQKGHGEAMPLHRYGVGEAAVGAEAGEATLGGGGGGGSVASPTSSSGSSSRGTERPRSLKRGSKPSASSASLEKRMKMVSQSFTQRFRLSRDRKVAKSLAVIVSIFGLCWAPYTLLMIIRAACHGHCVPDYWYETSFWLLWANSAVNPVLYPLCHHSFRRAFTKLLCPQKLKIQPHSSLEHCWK
assay explanation: [3H]NAMH displacement, cell homogenates
Assay type: biochemical
stated conditions: read-out: pKi (converted)
experimental readout: Ki (nM)

- smiles structure: "Cc1nc(-c2ccccc2)cc(N2CCN(C)CC2)n1"
  experimental readout: "Ki"
  measurement: 79.4

1. CC(C)c1cc(N2CCN(C3CCC3)CC2)nc(N)n1
2. Cc1nc(C(C)C)cc(N2CCN(C3CCC3)CC2)n1
Please compare: 1 and 2 . Report which one has the smaller Ki value. In your reply, give the label of the chosen option.
1

---

system name: hH3R (human histamine H3 receptor) (Homo sapiens)
Construct: gene HRH3; transiently transfected cDNA, HEK293T cell homogenates
assay explanation: [3H]NAMH displacement, cell homogenates
Format: biochemical
stated conditions: read-out: pKi (converted)
experimental readout: Ki (nM)

- compound: "Cc1cc(N2CCN(C3CCC3)CC2)nc(N)n1 [compound 12, 12]"
  system name: "hH3R (human histamine H3 receptor) (Homo sapiens)"
  Ki, nM: 316
- compound: "S=C=Nc1cccc(N2CCN(C3CCC3)CC2)c1 [compound 44]"
  system name: "hH3R (human histamine H3 receptor) (Homo sapiens)"
  Ki, nM: 316
